Just for reference, ChEMBL document CHEMBL1145272 is where these values come from.

assay: Maximal plasma concentration in dogs after 0.65 mg/kg oral dose; assay type: ADME, organism-based, Canis lupus familiaris; design: dose 0.65 mg/kg, route oral; details: dog
OUTCOME_MEASURE: Cmax (nM)

# LINE_NOTATION, OUTCOME_MEASURE, MEASUREMENT
measured = [
    ("NCc1ccccc1CNC(=O)Cc1c(Cl)ccc(NCC(F)(F)c2ccccn2)[n+]1[O-]", "Cmax", 820),
]

* * *

target: Prothrombin (Homo sapiens, UniProt P00734); assay: Binding affinity against thrombin in human plasma
pKi: −log10 of the molar value.
Reported pKi values for the following compounds.
OUTCOME_MEASURE: pKi

# COMPOUND, OUTCOME_MEASURE, RELATION_OPERATOR, MEASUREMENT
data = [
    ("N#Cc1ccc(NCC(F)(F)c2ccccn2)[n+]([O-])c1CC(=O)NCc1ncccc1F", "pKi", "=", 8.82),
    ("O=C(Cc1c(Cl)ccc(NCC(F)(F)c2ccccn2)[n+]1[O-])NCc1ncccc1-n1cncn1", "pKi", "=", 8.60),
    ("N#Cc1ccc(NCC(F)(F)c2ccccn2)[n+]([O-])c1CC(=O)NCc1cc(Cl)ccc1CN", "pKi", "=", 12.00),
    ("N#Cc1ccc(NCC(F)(F)c2ccccn2)[n+]([O-])c1CC(=O)NCc1cc(Cl)ccc1-n1cnnn1", "pKi", "=", 11.70),
    ("N#Cc1ccc(NCC(F)(F)c2ccccn2)[n+]([O-])c1CC(O)NCc1ccccc1CN (stereo unspecified)", "pKi", ">", 11.00),
    ("N#Cc1ccc(NCC(F)(F)c2ccccn2)[n+]([O-])c1CC(O)NCc1cccc(Cl)c1 (stereo unspecified)", "pKi", "=", 10.10),
    ("NCc1ccc(Cl)cc1C(CO)NC(=O)Cc1c(Cl)ccc(NCC(F)(F)c2ccccn2)[n+]1[O-] (stereo unspecified)", "pKi", "=", 9.32),
    ("O=C(Cc1cccc(NCC(F)(F)c2ccccn2)[n+]1[O-])NCc1cc(Cl)ccc1-n1cncn1", "pKi", "=", 8.82),
    ("O=C(Cc1c(Cl)ccc(NCC(F)(F)c2ccccn2)[n+]1[O-])NCc1cc(Cl)ccc1-n1cncn1", "pKi", "=", 10.30),
    ("C[C@H](N)c1ccc(Cl)cc1CNC(=O)Cc1c(Cl)ccc(NCC(F)(F)c2ccccn2)[n+]1[O-]", "pKi", "=", 7.70),
    ("O=C(Cc1c(Cl)ccc(NCC(F)(F)c2ccccn2)[n+]1[O-])NCc1ncccc1F", "pKi", "=", 8.22),
    ("NCc1ccc(Cl)cc1CNC(=O)Cc1cccc(NCC(F)(F)c2ccccn2)[n+]1[O-]", "pKi", "=", 10.40),
    ("O=C(Cc1cccc(NCC(F)(F)c2ccccn2)[n+]1[O-])NCc1cc(Cl)ccc1-n1cnnn1", "pKi", "=", 9.85),
    ("N#Cc1ccc(NCC(F)(F)c2ccccn2)[n+]([O-])c1CC(=O)NCc1ncccc1-n1cncn1", "pKi", "=", 9.64),
    ("C[C@H](NC(=O)Cc1c(Cl)ccc(NCC(F)(F)c2ccccn2)[n+]1[O-])c1cc(Cl)ccc1CN", "pKi", "=", 8.49),
    ("[O-][n+]1c(NCC(F)(F)c2ccccn2)ccc(Cl)c1CC(O)NCc1cccc(Cl)c1 (stereo unspecified)", "pKi", "=", 9.38),
    ("NCc1ccccc1CNC(=O)Cc1c(Cl)ccc(NCC(F)(F)c2ccccn2)[n+]1[O-]", "pKi", "=", 9.40),
    ("C[C@@H](NC(=O)Cc1c(Cl)ccc(NCC(F)(F)c2ccccn2)[n+]1[O-])c1cc(Cl)ccc1CN", "pKi", "=", 6.59),
    ("NCc1ccc(Cl)cc1CNC(=O)Cc1c(Cl)ccc(N)[n+]1[O-]", "pKi", "=", 7.59),
    ("O=C(Cc1c(Cl)ccc(NCC(F)(F)c2ccccn2)[n+]1[O-])NCc1ccccc1-n1cncn1", "pKi", "=", 8.59),
    ("Nc1ccc(Cl)c(CC(=O)NCc2cc(Cl)ccc2-n2cnnn2)[n+]1[O-]", "pKi", "=", 6.85),
    ("N#Cc1ccc(N)[n+]([O-])c1CC(=O)NCc1cc(Cl)ccc1CN", "pKi", "=", 8.00),
    ("NCc1ccc(Cl)cc1CNC(=O)Cc1c(Cl)ccc(NCC(F)(F)c2ccccn2)[n+]1[O-]", "pKi", ">", 11.00),
    ("N#Cc1ccc(NCC(F)(F)c2ccccn2)[n+]([O-])c1CC(=O)NCc1ccccc1", "pKi", "=", 6.82),
    ("N#Cc1ccc(N)[n+]([O-])c1CC(=O)NCc1cc(Cl)ccc1-n1cnnn1", "pKi", "=", 7.74),
    ("C[C@@H](N)c1ccc(Cl)cc1CNC(=O)Cc1c(Cl)ccc(NCC(F)(F)c2ccccn2)[n+]1[O-]", "pKi", "=", 9.35),
]

* * *

assay: Half-life in dog plasma; format: ADME, organism-based, Canis lupus familiaris
Reported half-life values for the following molecules.

# MOLECULE, half-life [h]
rows = [
    ("C[C@H](NC(=O)Cc1c(Cl)ccc(NCC(F)(F)c2ccccn2)[n+]1[O-])c1cc(Cl)ccc1CN", 4.5),
    ("NCc1ccc(Cl)cc1C(CO)NC(=O)Cc1c(Cl)ccc(NCC(F)(F)c2ccccn2)[n+]1[O-] (centres undefined)", 1.5),
    ("C[C@@H](N)c1ccc(Cl)cc1CNC(=O)Cc1c(Cl)ccc(NCC(F)(F)c2ccccn2)[n+]1[O-]", 2),
    ("NCc1ccccc1CNC(=O)Cc1c(Cl)ccc(NCC(F)(F)c2ccccn2)[n+]1[O-]", 1.5),
]

* * *

assay: Maximal plasma concentration in dogs after 0.7 mg/kg oral dose; format: ADME, organism-based, Canis lupus familiaris; set-up: dose 0.7 mg/kg, route oral; conditions: dog
OUTCOME_MEASURE: Cmax

# LINE_NOTATION, OUTCOME_MEASURE, MEASUREMENT
measured = [
    ("C[C@@H](N)c1ccc(Cl)cc1CNC(=O)Cc1c(Cl)ccc(NCC(F)(F)c2ccccn2)[n+]1[O-]", "Cmax", "100 nM"),
]

* * *

assay: Maximal plasma concentration in dogs after 0.95 mg/kg oral dose; assay type: ADME, organism-based, Canis lupus familiaris; parameters: dose 0.95 mg/kg, route oral; conditions: dog

# LINE_NOTATION, Cmax, nM
measured = [
    ("C[C@H](NC(=O)Cc1c(Cl)ccc(NCC(F)(F)c2ccccn2)[n+]1[O-])c1cc(Cl)ccc1CN", 2600),
]
